- System Name: GTPase KRas [G12V] (Homo sapiens, UniProt P01116, G12V)
- Sequence (P01116 whole entry G12V): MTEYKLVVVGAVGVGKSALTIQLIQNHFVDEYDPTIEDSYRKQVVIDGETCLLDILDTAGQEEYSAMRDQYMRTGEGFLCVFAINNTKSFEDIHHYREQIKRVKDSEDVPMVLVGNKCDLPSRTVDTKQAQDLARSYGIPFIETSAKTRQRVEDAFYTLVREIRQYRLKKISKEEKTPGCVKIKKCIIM
Observable: IC50

// query Annotate the compound CCn1c(-c2cccnc2[C@H](C)OC)c2c3cc(ccc31)-c1cc(O)cc(c1)C[C@H](NC(=O)[C@H](C(C)C)N(C)C(=O)[C@H]1CCN(C(=O)OC(C)C)C1)C(=O)N1CCC[C@H](N1)C(=O)OCC(C)(C)C2 with its measured IC50.
// result > 10 µM

###

Assignment: determine reported pIC50 for the given compounds.
Units for pIC50: none; it is -log10 of a concentration expressed in mol/L.

// query State the measured pIC50 (GTPase KRas [G12C] (Homo sapiens, UniProt P01116, G12C)) of CCn1c(-c2cnccc2COC)c2c3cc(ccc31)-c1cc(O)cc(c1)C[C@H](NC(=O)[C@H](C(C)C)N(C)C(=O)[C@@H]1NC[C@@H]3C[C@@H]31)C(=O)N1CCC[C@H](N1)C(=O)OCC(C)(C)C2
// result 6.26

// query Lab note: record pIC50 of CCn1c(-c2cccnc2[C@H](C)OC)c2c3cc(ccc31)-c1csc(n1)C[C@H](NC(=O)[C@H](C(C)C)N(C)C(=O)N1CCC[C@@H](N(C)C)CC1)C(=O)N1CCC[C@H](N1)C(=O)OCC(C)(C)C2 tested on GTPase KRas [G12C] (Homo sapiens, UniProt P01116, G12C).
Sequence (P01116 whole entry G12C): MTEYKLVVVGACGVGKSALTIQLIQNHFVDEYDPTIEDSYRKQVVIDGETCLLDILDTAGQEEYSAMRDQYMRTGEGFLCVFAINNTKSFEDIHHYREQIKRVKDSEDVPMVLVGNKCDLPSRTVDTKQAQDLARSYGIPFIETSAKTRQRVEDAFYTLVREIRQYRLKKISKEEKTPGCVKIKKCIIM
// result 7.26

// query With GTPase KRas [G12C] (Homo sapiens, UniProt P01116, G12C) as the test system, provide measured pIC50 for this compound: CCN1C[C@@H](C(=O)N(C)[C@H](C(=O)N[C@H]2Cc3cc(O)cc(c3)-c3ccc4c(c3)c(c(-c3cnccc3COC)n4CC)CC(C)(C)COC(=O)[C@@H]3CCCN(N3)C2=O)C(C)C)CC1=O
// result 7.26

// query Would you please give the reported pIC50 of CCn1c(-c2cccnc2[C@H](C)OC)c2c3cc(ccc31)-c1csc(n1)C[C@H](NC(=O)[C@H](C(C)C)N(C)C(=O)OC)C(=O)N1CCC[C@H](N1)C(=O)OCC(C)(C)C2 with GTPase KRas [G12C] (Homo sapiens, UniProt P01116, G12C)?
// result 6.26
